SYSTEM TESTED: recombinant soluble homotrimeric HA, A/Wisconsin/67/05 H3N2 (Influenza A virus A/Wisconsin/67/2005(H3N2))
PROTOCOL TEXT: microarray, transfection SN IgG, trimeric HA
EXPERIMENTAL CONDITIONS: remark: other sources report otherwise
Kindly supply the reported Trimeric HA Binding: RLU values for the records listed here.
Record the value in RLU, omitting the unit from your answer.

Prompt: // lookup Trimeric HA Binding: RLU for TCN-550 (5096_F06) (antibody, V domains shown) VH: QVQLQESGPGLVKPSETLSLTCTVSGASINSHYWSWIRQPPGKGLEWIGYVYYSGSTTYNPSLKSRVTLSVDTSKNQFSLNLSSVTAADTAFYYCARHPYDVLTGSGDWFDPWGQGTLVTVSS VL: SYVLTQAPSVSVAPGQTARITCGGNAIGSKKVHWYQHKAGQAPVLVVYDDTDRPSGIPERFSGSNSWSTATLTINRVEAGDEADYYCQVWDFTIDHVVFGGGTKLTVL
Response: 37800

Prompt: // lookup Trimeric HA Binding: RLU for TCN-552 (5249_I23) (antibody, V domains shown) VH: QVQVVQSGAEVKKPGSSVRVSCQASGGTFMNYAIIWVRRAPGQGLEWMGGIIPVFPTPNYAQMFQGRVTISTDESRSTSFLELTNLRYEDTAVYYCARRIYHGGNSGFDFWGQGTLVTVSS VL: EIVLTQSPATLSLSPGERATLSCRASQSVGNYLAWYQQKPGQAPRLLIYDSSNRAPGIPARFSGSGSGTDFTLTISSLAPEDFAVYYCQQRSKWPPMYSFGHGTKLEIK
Response: 18500

Prompt: // lookup Trimeric HA Binding: RLU for TCN-557 (5081_A04) (antibody, V domains shown) VH: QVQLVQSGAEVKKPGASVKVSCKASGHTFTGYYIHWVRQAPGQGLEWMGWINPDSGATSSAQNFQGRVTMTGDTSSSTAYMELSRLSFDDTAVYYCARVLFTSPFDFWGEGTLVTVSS VL: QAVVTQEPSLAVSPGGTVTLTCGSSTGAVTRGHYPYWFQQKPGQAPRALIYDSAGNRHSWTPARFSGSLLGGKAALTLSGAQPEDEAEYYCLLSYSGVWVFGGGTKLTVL
Response: 46100

Prompt: // lookup Trimeric HA Binding: RLU for TCN-554 (5277_M05) (antibody, V domains shown) VH: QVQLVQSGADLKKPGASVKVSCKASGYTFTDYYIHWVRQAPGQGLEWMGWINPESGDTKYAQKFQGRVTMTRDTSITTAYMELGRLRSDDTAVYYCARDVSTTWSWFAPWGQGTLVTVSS VL: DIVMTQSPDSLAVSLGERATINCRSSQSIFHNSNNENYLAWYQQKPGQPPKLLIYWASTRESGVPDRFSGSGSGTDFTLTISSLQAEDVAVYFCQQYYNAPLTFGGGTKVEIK
Response: 25300

Prompt: // lookup Trimeric HA Binding: RLU for TCN-553 (5261_C18) (antibody, V domains shown) VH: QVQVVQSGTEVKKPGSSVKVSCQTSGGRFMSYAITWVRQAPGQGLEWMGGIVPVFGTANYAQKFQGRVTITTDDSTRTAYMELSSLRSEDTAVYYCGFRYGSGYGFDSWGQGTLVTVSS VL: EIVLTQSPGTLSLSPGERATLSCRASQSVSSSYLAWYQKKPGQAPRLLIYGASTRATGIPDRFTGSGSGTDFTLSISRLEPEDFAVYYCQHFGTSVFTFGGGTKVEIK
Response: 25200

Prompt: // lookup Trimeric HA Binding: RLU for TCN-558 (5248_H10b) (antibody, V domains shown) VH: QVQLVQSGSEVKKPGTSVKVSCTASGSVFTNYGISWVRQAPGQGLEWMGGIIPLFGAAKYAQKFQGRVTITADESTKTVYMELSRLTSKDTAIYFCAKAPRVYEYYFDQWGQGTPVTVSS VL: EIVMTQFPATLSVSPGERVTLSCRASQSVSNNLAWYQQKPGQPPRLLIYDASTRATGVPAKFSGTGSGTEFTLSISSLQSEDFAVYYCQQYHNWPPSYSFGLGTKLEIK
Response: 26600
